Test: qHTS Screen of the MIPE 4.0 Collection Against Ewings Sarcoma (RDES) (AID 1259252); also: nearly all actives have a fitted effect of over 35% in size
Conditions: RD-ES Ewing sarcoma viability, CellTiter-Glo, 48 h; series mostly up to 45.8 µM
Method: There is a large unmet medical need for treatments for Ewing sarcoma, a pediatric sarcoma. […] Using the NCATS developed oncology compound library called the Mechanism of Interrogation Plate (MIPE), four Ewing sarcoma cell lines were evaluated (TC32, TC71, RDES, EW8). Compounds, in a 12-point titration series, were incubated with cells for 48 hours and the read out was cell viability (CellTiter-Glo from Promega). […]
Results filed as inconclusive are left out. Calls of active or inactive are those of the source. Calls follow the shape of the dose curve; as a rule, active = well fitted inhibition curve with a large enough effect; inconclusive = small, poorly fitted or top-dose-only effect; inactive = no such curve, though single readings can be large or run the other way.
In this exercise, the only acceptable responses are 1 (active), 0 (inactive)

Record excerpt, results attached:
compound | group
Clc1cccc(Cl)c1NC1=NCCN1 | 0
Cc1ccc(N(CC2=NCCN2)c2cccc(O)c2)cc1 | 0
COc1c(Cl)cc2c([nH]c3cnccc32)c1NC(=O)c1cccnc1C | 1

## Task Entry Cc1n[nH]c(C)c1Cc1sc2c(c1C(=O)N1C[C@H](O)CO1)c(=O)n(C)c(=O)n2CC(C)C : call = ?
## Result 0

## Task Kindly provide the recorded test outcome for the following compound: Cc1cc(C=c2sc3nc4ccccc4n3c2=O)c(C)n1-c1ccccc1
## Result 0

* * *

experiment: qHTS of pediatric cancer cell lines to identify multiple opportunities for drug repurposing: Primary screen for OHS-50 cells (AID 1347103); details: OHS-50 osteosarcoma viability, CellTiter-Glo luminescence, 48 h; series mostly up to 57.3 µM; also: nearly all actives have a fitted effect of over 40% in size; also: potency is read from the fitted curve at half-maximal effect
Results filed as inconclusive are left out. Active and inactive are the calls of the source. The call rests on the fitted dose curve; in most records, active means well fitted cell-killing curve with a large enough effect; inconclusive means small, poorly fitted or top-dose-only effect; inactive means no such curve, though single readings can be large or run the other way.
measurementKind: Potency

The following compounds have reported results that may help.
compound | Potency
OCCn1cc(-c2cnc3nnn(Cc4ccc5ncccc5c4)c3n2)cn1 | inactive
OC(CCN1CCCCC1)(c1ccccc1)C1CC2C=CC1C2 (stereo not given) | inactive
CCn1c(-c2nonc2N)nc2cnc(Oc3cccc(NC(=O)c4ccc(OCCN5CCOCC5)cc4)c3)cc21 | 15.3 µM (active)
CC(C=CC1=C(C)CCCC1(C)C)=CC=CC(C)=CC(=O)O | 0.344 µM (active)
O=C(O)CCc1ccc(NCc2cccc(Oc3ccccc3)c2)cc1 | inactive
CC1(C)SCCN(S(=O)(=O)c2ccc(OCC#CCO)cc2)[C@@H]1C(=O)NO | inactive
COc1ccc(CC2=NN3C([C@@H](CCc4ccccc4)[C@@H](C)O)=NC(C)C3C(=O)N2)cc1OC (stereo not given in full) | inactive
CCCS(=O)(=O)Nc1ccc(F)c(C(=O)c2c[nH]c3ncc(-c4ccc(Cl)cc4)cc23)c1F | 6.85 µM (active)
COc1ccc([C@@H]2CC(=O)c3c(O)cc(O[C@@H]4O[C@H](CO[C@@H]5O[C@@H](C)[C@H](O)[C@@H](O)[C@@H]5O)[C@@H](O)[C@H](O)[C@@H]4O)cc3O2)cc1O | inactive
COc1ccccc1[C@H](c1cccc2ccccc12)[C@@](C)(C#N)C(=O)N1CCC(c2cccc(C(F)(F)F)c2)CC1 | 1.09 µM (active)

The reported Potency of the compound COc1cccc2cc(-c3nc(C4CCC(C(=O)O)CC4)n4ncnc(N)c34)[nH]c12 (stereo not given) was 0.109 µM (active)

The measured Potency associated with Cn1c(=O)c(F)c(Nc2ccc(I)cc2F)c2c(=O)n(C[C@@H](O)CO)cnc21 reads inactive

Potency in this record for CC(c1cc2ccccc2s1)N(O)C(N)=O (stereo not given) : inactive

In plain terms, CNCc1ccc(-c2[nH]c3cc(F)cc4c3c2CCNC4=O)cc1 has a documented Potency of inactive

// NCCCC(N)(C(=O)O)C(F)F (stereo not given) : Potency value = inactive

* * *

assay: Quantitative High-Throughput drug screen in 47 multiple myeloma cell lines against the NCATS MIPE library collection: NCIH929_DSMZ cell viability assay (AID 1918978); details: NCI-H929 myeloma viability, CellTiter-Glo ATP, 48 h; series mostly up to 45.8 µM; also: nearly all actives have a fitted effect of over 35% in size
Results filed as inconclusive are left out. Activity calls are given as the source filed them. The call rests on the fitted dose curve; in most records, active means well fitted cell-killing curve with a large enough effect; inconclusive means small, poorly fitted or top-dose-only effect; inactive means no such curve, though single readings can be large or run the other way.
I would appreciate it if you answered using one of these outcomes: YES = active, NO = inactive

## Task Returns: the outcome recorded for CS(=O)(=O)Oc1ccc2c(NC(N)=O)c(C(=O)c3ccc(Cl)cc3Cl)oc2c1 in this assay.
## Result YES

## Task Which outcome was entered for the compound OC(CN1CCC(Cc2ccc(F)cc2)CC1)c1ccc(Cl)cc1 (stereo not drawn) in this test?
## Result NO

## Task What classification did NC[C@H](O)c1ccc(O)c(O)c1 end up with in this test?
## Result NO

## Task Kindly provide the recorded test outcome for the following compound: O=NN(CCCl)C(=O)NCCCl
## Result NO

## Task Which result was noted for this compound in the test: NC(=O)c1cnccn1
## Result NO

## Task Entry Cc1cccc(-c2[nH]c(C(C)(C)C)nc2-c2ccc3nccnc3c2)n1 : call = ?
## Result YES

## Task Identify the outcome logged in this assay for the compound shown: C1COC(NC(C2CC2)C2CC2)=N1
## Result NO

## Task Hello, I am checking results. What call was entered for C[C@H](NC(=O)Cc1cc(F)cc(F)c1)C(=O)N[C@@H]1C(=O)N(C)c2ccccc2-c2ccccc21 ?
## Result YES

* * *

tested on: astro; experiment: Drug repurposing screens with cells derived from glioblastoma tumor samples (AID 1345199); settings: viability, ATP luminescence, 48 h; series mostly up to 45.9 µM; also: nearly all actives have a fitted effect of over 40% in size
Results filed as inconclusive are left out. Calls of active or inactive are those of the source. Calls come from the whole dose curve; as a rule, active = well fitted inhibition curve with a large enough effect; inconclusive = small, poorly fitted or top-dose-only effect; inactive = flat fitted curve, though single readings scatter.
Your response should consist of one outcome taken from 1 (yes) (active), 0 (no) (inactive)

Worked cases, answers included:
compound | group
NC[C@H](O)c1ccc(O)c(O)c1 | 0 (no)
Cc1cnc(NC(=O)C2=C(O)c3ccccc3S(=O)(=O)N2C)s1 | 0 (no)
CCN(CC)CCCC(C)Nc1ccnc2cc(Cl)ccc12 (stereo not given) | 0 (no)
Nc1nc2c(ncn2COCCO)c(=O)[nH]1 | 0 (no)

## Task // outcome(item) with item = O=C(NOC[C@H](O)CO)c1ccc(F)c(F)c1Nc1ccc(I)cc1F
## Result 1 (yes)

* * *

experiment: Quantitative High-Throughput drug screen in 47 multiple myeloma cell lines against the NCATS MIPE library collection: OPM1_PLB cell viability assay (AID 1918989); settings: CellTiter-Glo, 48 h; series mostly up to 45.8 µM; also: nearly all actives have a fitted effect of over 40% in size; also: potency is read from the fitted curve at half-maximal effect
Inconclusive results are not listed. Active and inactive are the calls of the source. Calls follow the shape of the dose curve; as a rule, active = well fitted cell-killing curve with a large enough effect; inconclusive = small, poorly fitted or top-dose-only effect, or effect the other way; inactive = no such curve, though single readings can be large or run the other way.
measurementKind: Potency

compound | Potency
COc1cc(F)c(F)c(Nc2ccc(I)cc2F)c1NS(=O)(=O)C1(C[C@H](O)CO)CC1 | 11.8 µM (active)
CCC(C)N(C)C(=O)c1cc2ccccc2c(-c2ccccc2Cl)n1 (configuration not stated) | inactive
Cc1ccnc(NS(=O)(=O)c2ccc(NC(=O)Nc3ccc(S(=O)(=O)Nc4nccc(C)n4)cc3)cc2)n1 | 18.7 µM (active)
Cc1cc2c(F)c(Oc3ncnn4cc(OC[C@@H](C)O)c(C)c34)ccc2[nH]1 | 20.9 µM (active)
CC(C)(C)NCC(O)c1ccc(O)c(CO)c1 (configuration not stated) | inactive

Given item Clc1cccc(Cl)c1NC1=NCCN1 , the value recorded as its Potency is inactive

# Potency (compound: Cc1cn[nH]c1 ) is 1.66 µM (active)

Value of Potency reported for the compound CCCCNc1cc(C(=O)O)cc(S(N)(=O)=O)c1Oc1ccccc1 is inactive

What the record says about CCOc1cc(C=C2C(=O)N(c3ccccc3)N=C2C)cc(Cl)c1OCC(=O)OC : Potency is 23.5 µM (active)

Potency for OC(CCN1CCCCC1)(c1ccccc1)C1CC2C=CC1C2 (configuration not stated) is inactive

According to the records, this compound C[C@@H]1CN(Cc2ccc(F)cc2)[C@@H](C)CN1C(=O)c1cc2c(C(=O)C(=O)N(C)C)cn(C)c2cc1Cl displays Potency of 29.6 µM (active)

Quick note, Potency for CC1(C)CNc2cc(NC(=O)c3cccnc3NCc3ccncc3)ccc21 landed at inactive

Please fill in: Potency reported for CC[C@@H](C)[C@H](NC(=O)[C@H](CC1CCCCC1)NC(=O)c1ccno1)C(=O)N1CCC2(CCc3ccccc32)CC1 = inactive

// Potency lookup, compound = Cc1c(C)c2c(c(C)c1O)CCC(C)(COc1ccc(CC3SC(=O)NC3=O)cc1)O2 (configuration not stated) , result: inactive

Record summary for N#Cc1ccc(C(c2ccc(C#N)cc2)n2cncn2)cc1 : reported Potency = 16.6 µM (active)

Per the record, CCOc1ccc(Cc2cc([C@@H]3O[C@H](CO)[C@@H](O)[C@H](O)[C@@H]3O)ccc2Cl)cc1 has Potency of 14.8 µM (active)

Oc1cccc(-c2nc(N3CCOCC3)c3oc4ncccc4c3n2)c1 has a reported Potency of 0.0855 µM (active)

What the record says about Cc1[nH]c(=O)c(C#N)cc1-c1ccc2nccn2c1 : Potency is inactive

The compound listed as Cc1cc(-c2ccc(CC(=O)Nc3ccc(-c4cccnc4)cc3)cc2)ccn1 shows Potency equal to 20.9 µM (active)

Sure, the documented Potency for O=c1n(CCCN2CCN(c3cccc(Cl)c3)CC2)nc2ccccn12 is inactive

Recorded Potency (compound Nc1nccc(-c2ccc3noc(-c4ccc(Cl)cc4)c3c2)n1 ): inactive
